TESTED TARGET: T1, Mst77F CTD* (UniProt P16909, CTD sequence randomized)
T1 sequence: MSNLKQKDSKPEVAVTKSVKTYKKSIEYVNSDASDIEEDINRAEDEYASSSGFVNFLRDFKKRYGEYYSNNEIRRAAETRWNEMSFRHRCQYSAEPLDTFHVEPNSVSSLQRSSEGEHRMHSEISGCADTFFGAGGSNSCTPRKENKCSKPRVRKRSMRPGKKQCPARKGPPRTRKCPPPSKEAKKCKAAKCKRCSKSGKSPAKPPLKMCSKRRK
TEST METHOD NOTES: FP
MEASURE NAME: pKd
Please report pKd as the negative decimal logarithm of the molar concentration, giving only the number.

Exercise: pKd for random 12 bp DNA (dsDNA) DNA 1: GTACCACGGTAG DNA 2: CTACCGTGGTAC ?
Key: 7.22
